Cited source: patent US20190032060

target-desc: Insulin receptor, endogenous on 3T3-L1 adipocytes (UniProt P15208+P15208)
Sequence (P15208 28-748, chain 1 of 2): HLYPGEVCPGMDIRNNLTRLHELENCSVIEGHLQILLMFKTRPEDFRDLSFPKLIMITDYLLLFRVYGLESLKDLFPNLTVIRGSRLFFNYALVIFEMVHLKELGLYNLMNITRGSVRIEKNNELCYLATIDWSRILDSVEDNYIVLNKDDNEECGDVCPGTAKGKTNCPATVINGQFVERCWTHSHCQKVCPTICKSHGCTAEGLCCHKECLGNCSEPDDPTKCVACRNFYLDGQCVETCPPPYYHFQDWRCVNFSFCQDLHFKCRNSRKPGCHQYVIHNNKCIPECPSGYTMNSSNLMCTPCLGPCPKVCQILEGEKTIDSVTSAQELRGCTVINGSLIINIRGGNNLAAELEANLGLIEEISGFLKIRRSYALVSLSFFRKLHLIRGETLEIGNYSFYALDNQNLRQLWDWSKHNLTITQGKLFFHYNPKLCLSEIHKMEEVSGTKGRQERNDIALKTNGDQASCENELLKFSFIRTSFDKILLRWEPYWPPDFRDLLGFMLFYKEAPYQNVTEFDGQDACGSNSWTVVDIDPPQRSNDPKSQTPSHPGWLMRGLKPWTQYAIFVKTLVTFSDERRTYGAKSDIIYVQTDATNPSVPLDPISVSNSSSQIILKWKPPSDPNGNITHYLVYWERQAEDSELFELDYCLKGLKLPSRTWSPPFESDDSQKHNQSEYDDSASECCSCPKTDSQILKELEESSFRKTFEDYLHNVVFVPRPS
Sequence (P15208 753-1372, chain 2 of 2): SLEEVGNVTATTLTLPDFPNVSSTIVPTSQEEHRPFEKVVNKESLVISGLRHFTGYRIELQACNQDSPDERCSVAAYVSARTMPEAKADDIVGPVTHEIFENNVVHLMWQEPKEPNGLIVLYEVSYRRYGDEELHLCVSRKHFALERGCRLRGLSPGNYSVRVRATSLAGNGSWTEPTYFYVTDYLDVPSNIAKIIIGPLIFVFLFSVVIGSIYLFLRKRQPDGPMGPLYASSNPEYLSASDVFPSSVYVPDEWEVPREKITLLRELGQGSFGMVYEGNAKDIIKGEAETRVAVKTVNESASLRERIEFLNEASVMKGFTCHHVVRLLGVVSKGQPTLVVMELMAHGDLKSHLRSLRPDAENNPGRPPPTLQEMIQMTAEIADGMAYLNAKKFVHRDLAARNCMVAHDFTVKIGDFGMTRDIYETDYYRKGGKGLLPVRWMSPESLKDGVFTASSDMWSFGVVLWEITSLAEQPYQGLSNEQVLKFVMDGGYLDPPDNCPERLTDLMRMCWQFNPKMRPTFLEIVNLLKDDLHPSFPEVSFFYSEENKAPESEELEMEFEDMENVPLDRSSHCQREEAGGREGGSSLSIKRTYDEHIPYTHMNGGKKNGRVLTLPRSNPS
procedure-details: cell_activity
test-conditions: 6 Nap-dU (n positions) [n positions 8,10,11,21,23,27 = modified dU]; 2-deoxyglucose uptake, 4 h treatment

{"entry-sequence": "CGCCTGGTGTTAAGACAACCTCTAGGTCAGGCG [IR-A48]", "target-desc": "Insulin receptor, endogenous on 3T3-L1 adipocytes (UniProt P15208+P15208)", "EC50 (nM)": 66.2}

###

target-desc: Insulin receptor (extracellular domain) (Homo sapiens?) (UniProt P06213+P06213)
procedure-details: filter
test-conditions: 8 Nap-dU in the variable region (n positions) [n positions 22,24,25,35,37,41,51,58 = modified dU]; 200 mM HEPES, 510 mM NaCl, 25 mM KCl, 25 mM MgCl2, 37 C
pKd: −log10 of the molar value.

{"entry-sequence": "TATGAGTGACCGTCCGCCTGGTGTTAAGACAACCTCTAGGTCAGGCGCAGTGACGGGTAGCAGCCACACCACCAGCCAAA [IR-A48F]", "pKd": 8.16}

###

target-desc: Insulin receptor (extracellular domain) (Homo sapiens?) (UniProt P06213+P06213)
procedure-details: filter
test-conditions: 6 Nap-dU (n positions) [n positions 8,10,11,21,23,27 = modified dU]; 200 mM HEPES, 510 mM NaCl, 25 mM KCl, 25 mM MgCl2, 37 C
pKd: −log10 of the molar value.
reported-property: pKd

{"entry-sequence": "CGCCTGGTGTTAAGACAACCTCTAGGTCAGGCG [IR-A48]", "target-desc": "Insulin receptor (extracellular domain) (Homo sapiens?) (UniProt P06213+P06213)", "endpoint-value": 8.46}

###

target-desc: Insulin receptor (extracellular domain) (Homo sapiens?) (UniProt P06213+P06213)
procedure-details: FP
test-conditions: 6 Nap-dU stated (n positions) [n positions 3,4,10,14,16,20,24 = modified dU]; filter binding assay in fact (see method p97-p99); 200 mM HEPES, 510 mM NaCl, 25 mM KCl, 25 mM MgCl2, 37 C
pKd: −log10 of the molar value.
reported-property: pKd

{"entry-sequence": "CATTACGCATGAGTCTAGATCCGTCAG [IR-A62]", "reported-property": "pKd", "endpoint-value": 8.62}
